Listing of entries alongside the reported Response.
Experiment: Tested for the ability to inhibit maximum contraction obtained in the presence of [b-Ala8] NKA(4-10) in isolated guinea pig trachea
Please state the figure in %; there is no need to write the unit.

Sample records with Response:
>  <Chem Smiles>
CN(C[C@H](CCN1CCC(O)(c2ccccc2)CC1)c1ccc(Cl)c(Cl)c1)C(=O)c1ccc(N)cc1

>  <Unit Annotation>
%

>  <Response>
95.9

$$$$
>  <Chem Smiles>
CN(C[C@H](CCN1CCC(O)(c2ccccc2)CC1)c1ccc(Cl)c(Cl)c1)C(=O)c1cccc([N+](=O)[O-])c1

>  <Unit Annotation>
%

>  <Response>
98.6

$$$$
>  <Chem Smiles>
CC(=O)Nc1ccccc1C(=O)N(C)C[C@H](CCN1CCC(O)(c2ccccc2)CC1)c1ccc(Cl)c(Cl)c1

>  <Unit Annotation>
%

>  <Response>
98.3

$$$$

Entry under review: CC(=O)Nc1ccc(C(=O)N(C)C[C@H](CCN2CCC(O)(c3ccccc3)CC2)c2ccc(Cl)c(Cl)c2)cc1 . Reported Response?
96.6

Query: Response; subject: CN(C[C@H](CCN1CCC(O)(c2ccccc2)CC1)c1ccc(Cl)c(Cl)c1)C(=O)c1ccc(NC(=O)CBr)cc1
96

Record request: Response value, item CN(C[C@H](CCN1CCC(O)(c2ccccc2)CC1)c1ccc(Cl)c(Cl)c1)C(=O)c1ccccc1NC(=O)CBr
97.1

Entry under review: CN(C[C@H](CCN1CCC(O)(c2ccccc2)CC1)c1ccc(Cl)c(Cl)c1)C(=O)c1ccc(F)cc1 . Reported Response?
94.7

Entry CN(C[C@H](CCN1CCC(O)(c2ccccc2)CC1)c1ccc(Cl)c(Cl)c1)C(=O)c1cccc(N)c1 has what Response?
97.4

Need Response of CN(C[C@H](CCN1CCC(O)(c2ccccc2)CC1)c1ccc(Cl)c(Cl)c1)C(=O)c1ccccc1N , thanks.
98.2

Quick one: Response for CN(C[C@H](CCN1CCC(O)(c2ccccc2)CC1)c1ccc(Cl)c(Cl)c1)C(=O)c1ccccc1 ?
93.3

Give its Response value. Item: CN(C[C@H](CCN1CCC(O)(c2ccccc2)CC1)c1ccc(Cl)c(Cl)c1)C(=O)c1ccc([N+](=O)[O-])cc1
98
